tested_system: Muscarinic M3 receptor (Homo sapiens, UniProt P20309)
Sequence (P20309 whole entry): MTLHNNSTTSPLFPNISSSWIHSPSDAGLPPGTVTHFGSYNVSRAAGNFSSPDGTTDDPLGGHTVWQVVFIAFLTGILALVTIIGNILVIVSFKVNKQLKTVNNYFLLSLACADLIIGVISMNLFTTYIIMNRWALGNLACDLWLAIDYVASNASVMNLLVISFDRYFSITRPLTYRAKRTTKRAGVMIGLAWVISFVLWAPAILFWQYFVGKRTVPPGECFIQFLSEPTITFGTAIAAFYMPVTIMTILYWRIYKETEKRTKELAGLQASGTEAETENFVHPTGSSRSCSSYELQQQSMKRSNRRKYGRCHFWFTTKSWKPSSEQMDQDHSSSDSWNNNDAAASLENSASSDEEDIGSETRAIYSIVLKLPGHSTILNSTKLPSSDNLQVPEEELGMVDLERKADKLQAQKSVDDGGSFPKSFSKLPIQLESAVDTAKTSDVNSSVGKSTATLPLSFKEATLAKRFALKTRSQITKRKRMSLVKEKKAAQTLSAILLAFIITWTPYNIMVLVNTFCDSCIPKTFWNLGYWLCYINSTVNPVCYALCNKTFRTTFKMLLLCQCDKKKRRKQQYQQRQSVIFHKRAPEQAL
pIC50: −log10 of the molar value.
measured_quantity: pIC50

• Nc1cccc2c1C(=S)N(C1CCC(=O)NC1=O)C2=O (stereo not shown) [3-MP, 3-Monothiopomalidomide] = < 5.00

---

experiment: in vitro
condition_details: Sprague Dawley, rat, microsomes
measured_quantity: half-life at 1 μM

- Nc1cccc2c1C(=S)N(C1CCC(=O)NC1=O)C2=O (stereo not shown) [3-MP, 3-Monothiopomalidomide]: > 2.42 h

---

tested_system: Adrenergic Alpha2B receptor (Homo sapiens)
Sequence (P18089 whole entry): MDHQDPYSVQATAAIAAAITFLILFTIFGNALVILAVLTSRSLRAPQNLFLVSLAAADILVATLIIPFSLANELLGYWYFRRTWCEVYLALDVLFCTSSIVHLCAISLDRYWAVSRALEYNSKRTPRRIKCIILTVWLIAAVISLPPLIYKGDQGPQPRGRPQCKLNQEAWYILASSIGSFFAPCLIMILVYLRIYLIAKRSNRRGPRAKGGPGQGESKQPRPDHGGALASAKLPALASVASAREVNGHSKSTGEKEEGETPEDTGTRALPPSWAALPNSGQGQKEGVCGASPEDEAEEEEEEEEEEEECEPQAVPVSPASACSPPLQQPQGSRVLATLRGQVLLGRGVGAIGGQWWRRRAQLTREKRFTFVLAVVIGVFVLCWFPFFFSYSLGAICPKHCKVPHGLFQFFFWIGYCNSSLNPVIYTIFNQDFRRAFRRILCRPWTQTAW
measured_quantity: IC50

- Nc1cccc2c1C(=S)N(C1CCC(=O)NC1=O)C2=O (stereo not shown) [3-MP, 3-Monothiopomalidomide]: > 10 µM
